# assay_method_text: yeast display, Sf9 membrane polyspecificity reagent, FACS + sequencing; frameworks hold sequencing errors
assay_metric: polyreactivity (PSR sort gate)

>  <record_sequence>
QVQLVESGGGLVQAGGSLRLSCAASGFIFSNYAMGWYRQAPGKERELVARISSSGGSTYYADSVKVRFTISRDIAKNTVYLQMNSLKPEVTAVYYCAAGFNLPAWGWAYYYWGQGTQVTVSS

>  <recorded_value>
high polyreactivity

$$$$
>  <record_sequence>
QVQLVESGGGLVQAGGSLRLSCAASGSTFYVYAMGWYRQAPGKERELVAAISRSGGSTYYADSVKGRFTISRDNAKNTVYLQMNSLKPEDTAVYYCAARGYSTYPMDYWGQGTQVTVSS

>  <recorded_value>
high polyreactivity

$$$$
